Target: human CDK4/cyclin D3 (Homo sapiens)
Construct: made in house; host or cells: insect cells co-infected with baculovirus vectors
Assay: Inhibition of CDK4/cyclin D retinoblastoma kinase activity (Ki; % inhibition)
Type: biochemical
Conditions: at 0.03 μM
readout_kind: CDK4 % Inhibition at 0.03 μM (%)

- CC(C)N(Cc1ccccc1)C(=O)c1ccc(Nc2nc(N)c(C(=O)c3c(F)cccc3F)s2)cc1: 10

(1) Nc1nc(Nc2ccc(C(=O)N3CCSCC3)cc2)sc1C(=O)c1c(F)cccc1F
(2) CNC(=O)c1ccccc1NC(=O)c1ccc(Nc2nc(N)c(C(=O)c3c(F)cccc3F)s2)cc1
(3) COC(=O)c1ccc(NC(=O)c2ccc(Nc3nc(N)c(C(=O)c4c(F)cccc4F)s3)cc2)cc1
Q: Task field, ranking: reported CDK4 % Inhibition at 0.03 μM, descending order. I would appreciate it if you listed the labels in the requested order.
Ans: 3, 1, 2

====

Molecular target: CDK2/cyclin A (Homo sapiens)
Construct: made in house; host or cells: CDK2: insect cells (baculovirus); cyclin A: E. coli
Assay: Inhibition of CDK2/cyclin A retinoblastoma kinase activity (Ki; % inhibition)
Type: biochemical
Details: at 0.03 μM
readout_kind: CDK2 % Inhibition at 0.03 μM (%)

Below are worked cases with known answers.
- CCC(CO)NC(=O)c1ccc(Nc2nc(N)c(C(=O)c3c(F)cccc3F)s2)cc1 (stereo not shown) [Example G156]: 24
- Nc1nc(Nc2ccc(C(=O)N3CCC(CCO)CC3)cc2)sc1C(=O)c1c(F)cccc1F: 4

(1) Nc1nc(Nc2ccc(C(=O)NCc3ccccn3)cc2)sc1C(=O)c1c(F)cccc1F
(2) CCOCCNC(=O)c1ccc(Nc2nc(N)c(C(=O)c3c(F)cccc3F)s2)cc1
Q: Min CDK2 % Inhibition at 0.03 μM? 1 | 2 Your choice should be expressed through its label.
Ans: 2

====

The entries below come with measured HCT-116 % Inhibition at 0.1 μM values attached.
Tested on: HCT-116 cell line
Test: Inhibition of cell growth, MTT tetrazolium salt assay
Assay type: cell-based
Conditions: HCT-116, at 0.1 μM
Numeric only. Scale: %

Examples with answers:
• Nc1nc(Nc2ccc(C(=O)NC3CCCC3)cc2)sc1C(=O)c1c(F)cccc1F [Example G131] = 0
• Nc1nc(Nc2ccc(C(=O)Nc3ccc4c(c3)S(=O)(=O)NC4=O)cc2)sc1C(=O)c1c(F)cccc1F [Example G101] = 10
• Nc1nc(Nc2ccc(C(=O)Nc3cccc(-c4cnco4)c3)cc2)sc1C(=O)c1c(F)cccc1F [Example G153] = 0
• Nc1nc(Nc2ccc(C(=O)NCCCN3CCCCC3)cc2)sc1C(=O)c1c(F)cccc1F [Example G128] = 23
• COC(=O)c1cccc(NC(=O)c2ccc(Nc3nc(N)c(C(=O)c4c(F)cccc4F)s3)cc2)c1 [Example G106] = 0
• Nc1nc(Nc2ccc(C(=O)NCCc3ccccn3)cc2)sc1C(=O)c1c(F)cccc1F [Example G140] = 0
• CC(=O)c1cccc(NC(=O)c2ccc(Nc3nc(N)c(C(=O)c4c(F)cccc4F)s3)cc2)c1 [Example G189] = 13
• CN(C(=O)c1ccc(Nc2nc(N)c(C(=O)c3c(F)cccc3F)s2)cc1)C1CCCCC1 [Example G187] = 16

Q: Value lookup for HCT-116 % Inhibition at 0.1 μM; key = CNC(=O)c1ccccc1NC(=O)c1ccc(Nc2nc(N)c(C(=O)c3c(F)cccc3F)s2)cc1 [Example G161]
Ans: 0

Q: Try this compound next: CC(C)CNC(=O)c1ccc(Nc2nc(N)c(C(=O)c3c(F)cccc3F)s2)cc1 [Example G126]
Ans: 0

Q: Would you mind doing COCCNC(=O)c1ccc(Nc2nc(N)c(C(=O)c3c(F)cccc3F)s2)cc1 [Example G164] as well?
Ans: 0

Q: Please answer likewise for CC(CNC(=O)c1ccc(Nc2nc(N)c(C(=O)c3c(F)cccc3F)s2)cc1)c1ccccc1 (stereo not shown) [Example G118]
Ans: 5

Q: Follow-up entry: Nc1nc(Nc2ccc(C(=O)NCc3cccnc3)cc2)sc1C(=O)c1c(F)cccc1F [Example G188]
Ans: 17

Q: Same for Nc1nc(Nc2ccc(C(=O)N3CCC(Cc4ccccc4)CC3)cc2)sc1C(=O)c1c(F)cccc1F [Example G194]
Ans: 20

Q: Request: CC(C)C(C)NC(=O)c1ccc(Nc2nc(N)c(C(=O)c3c(F)cccc3F)s2)cc1 (stereo not shown) [Example G89]
Ans: 30

Q: Another compound to look at: CC(C)OCCNC(=O)c1ccc(Nc2nc(N)c(C(=O)c3c(F)cccc3F)s2)cc1 [Example G168]
Ans: 25

Q: Nc1nc(Nc2ccc(C(=O)NCC3CC3)cc2)sc1C(=O)c1c(F)cccc1F [Example G144] , same question.
Ans: 0

====

Molecular target: human CDK4/cyclin D3 (Homo sapiens, UniProt P11802)
Construct: made in house; host or cells: insect cells co-infected with baculovirus vectors
Sequence (P11802 whole entry): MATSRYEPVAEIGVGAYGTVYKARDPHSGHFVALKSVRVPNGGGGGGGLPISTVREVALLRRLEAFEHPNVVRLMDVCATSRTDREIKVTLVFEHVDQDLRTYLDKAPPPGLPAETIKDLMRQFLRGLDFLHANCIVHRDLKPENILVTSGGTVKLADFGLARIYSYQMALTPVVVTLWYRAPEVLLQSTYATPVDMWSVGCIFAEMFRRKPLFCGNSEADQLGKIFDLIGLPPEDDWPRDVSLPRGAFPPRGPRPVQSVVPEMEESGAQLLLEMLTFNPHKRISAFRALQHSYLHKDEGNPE
Sequence (P30281 1-264 partner limits assumed): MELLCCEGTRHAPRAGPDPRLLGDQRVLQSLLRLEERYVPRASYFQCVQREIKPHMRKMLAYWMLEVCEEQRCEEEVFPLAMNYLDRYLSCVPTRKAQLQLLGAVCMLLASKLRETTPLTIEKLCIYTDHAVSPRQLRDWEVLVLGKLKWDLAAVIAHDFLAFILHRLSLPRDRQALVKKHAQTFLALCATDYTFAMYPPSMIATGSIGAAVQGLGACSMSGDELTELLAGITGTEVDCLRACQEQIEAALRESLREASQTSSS
Experiment: Inhibition of CDK4/cyclin D retinoblastoma kinase activity (Ki; % inhibition)
Format: biochemical
Conditions: 0.03 μM compound
readout_kind: CDK4 % Inhibition at 0.03 μM (%)

Use these answered entries as a reference point.
* CCN(CC)C(=O)c1ccc(Nc2nc(N)c(C(=O)c3c(F)cccc3F)s2)cc1 | 19
* CCCCN(C)C(=O)c1ccc(Nc2nc(N)c(C(=O)c3c(F)cccc3F)s2)cc1 | 19
* Nc1nc(Nc2ccc(C(=O)Nc3ccc(CCO)cc3)cc2)sc1C(=O)c1c(F)cccc1F | 29
* CN(Cc1ccccc1Cl)C(=O)c1ccc(Nc2nc(N)c(C(=O)c3c(F)cccc3F)s2)cc1 | −20
* Nc1nc(Nc2ccc(C(=O)N(CCO)Cc3ccccc3)cc2)sc1C(=O)c1c(F)cccc1F | 8
* Cc1ccc(O)c(NC(=O)c2ccc(Nc3nc(N)c(C(=O)c4c(F)cccc4F)s3)cc2)c1 | 9
* CCOC(CNC(=O)c1ccc(Nc2nc(N)c(C(=O)c3c(F)cccc3F)s2)cc1)OCC | 18
* COc1cccc(CCNC(=O)c2ccc(Nc3nc(N)c(C(=O)c4c(F)cccc4F)s3)cc2)c1OC | 20
* CC(CCCC(C)(C)O)NC(=O)c1ccc(Nc2nc(N)c(C(=O)c3c(F)cccc3F)s2)cc1 (stereo not shown) | 12
* CC(C)NC(=O)CN1CCN(C(=O)c2ccc(Nc3nc(N)c(C(=O)c4c(F)cccc4F)s3)cc2)CC1 | 21

(P) CCN(CCNC(=O)c1ccc(Nc2nc(N)c(C(=O)c3c(F)cccc3F)s2)cc1)c1cccc(C)c1
(Q) CCN(CC)CCCC(C)NC(=O)c1ccc(Nc2nc(N)c(C(=O)c3c(F)cccc3F)s2)cc1 (stereo not shown)
(R) Nc1nc(Nc2ccc(C(=O)Nc3cccc(OC(F)(F)F)c3)cc2)sc1C(=O)c1c(F)cccc1F
(S) Nc1nc(Nc2ccc(C(=O)NCCc3cccc(F)c3)cc2)sc1C(=O)c1c(F)cccc1F
(T) N#CCCNc1ccccc1NC(=O)c1ccc(Nc2nc(N)c(C(=O)c3c(F)cccc3F)s2)cc1
Q: Task for the reader: rank each entry by its CDK4 % Inhibition at 0.03 μM, from the minimum upward. When ranking, write the labels in the order the request describes.
Ans: R, T, S, Q, P
(R: −15%, T: 7%, S: 11%, Q: 27%, P: 44%)

====

Target: human CDK4/cyclin D3 (Homo sapiens)
Construct: made in house; host or cells: insect cells co-infected with baculovirus vectors
Assay: Inhibition of CDK4/cyclin D retinoblastoma kinase activity (Ki; % inhibition)
Assay type: biochemical
Conditions: 0.03 μM compound
readout_kind: CDK4 % Inhibition at 0.03 μM (%)

Past entries and their recorded results:
• COc1cc(CNC(=O)c2ccc(Nc3nc(N)c(C(=O)c4c(F)cccc4F)s3)cc2)cc(OC)c1 [Example G262] = 28
• CC[C@H](NC(=O)c1ccc(Nc2nc(N)c(C(=O)c3c(F)cccc3F)s2)cc1)c1ccccc1 [Example G214] = 16

(1) Nc1nc(Nc2ccc(C(=O)NCc3ccncc3)cc2)sc1C(=O)c1c(F)cccc1F [Example G277]
(2) Nc1nc(Nc2ccc(C(=O)Nc3ccc(Cl)nc3)cc2)sc1C(=O)c1c(F)cccc1F [Example G281]
(3) Nc1nc(Nc2ccc(C(=O)NC3c4ccccc4CC3O)cc2)sc1C(=O)c1c(F)cccc1F (stereo not shown) [Example G376]
(4) CSc1ccc(NC(=O)c2ccc(Nc3nc(N)c(C(=O)c4c(F)cccc4F)s3)cc2)cc1 [Example G255]
Q: Please produce an ascending ranking of these molecules based on CDK4 % Inhibition at 0.03 μM. Rank the items, then write their labels in that order.
Ans: 3, 4, 2, 1
(3: −6%, 4: 0%, 2: 12%, 1: 26%)

(I) COc1ccc(N2CCN(C(=O)c3ccc(Nc4nc(N)c(C(=O)c5c(F)cccc5F)s4)cc3)CC2)cc1 [Example G240]
(II) Nc1nc(Nc2ccc(C(=O)Nc3ccc(Cl)cc3CO)cc2)sc1C(=O)c1c(F)cccc1F [Example G341]
Q: I'm curious whether I or II has the smaller CDK4 % Inhibition at 0.03 μM number. Which is it? Respond with the label that goes with your answer.
Ans: II

(1) Cc1ccc(NC(=O)c2ccc(Nc3nc(N)c(C(=O)c4c(F)cccc4F)s3)cc2)nc1 [Example G352]
(2) Nc1nc(Nc2ccc(C(=O)N3CCCCC3CCO)cc2)sc1C(=O)c1c(F)cccc1F (stereo not shown) [Example G265]
Q: I would appreciate it if you could say which entry, 1 or 2 , has the lower CDK4 % Inhibition at 0.03 μM value. Answer by quoting the chosen item's label.
Ans: 1

(A) CC[C@H](C)[C@@H](CO)NC(=O)c1ccc(Nc2nc(N)c(C(=O)c3c(F)cccc3F)s2)cc1 [Example G327]
(B) Nc1nc(Nc2ccc(C(=O)N(CCCCO)Cc3ccccc3)cc2)sc1C(=O)c1c(F)cccc1F [Example G351]
(C) COc1ccc(CCNC(=O)c2ccc(Nc3nc(N)c(C(=O)c4c(F)cccc4F)s3)cc2)cc1OC [Example G241]
Q: Which order do these items take when sorted by rising CDK4 % Inhibition at 0.03 μM? List them. Answer by writing out the labels in the requested order.
Ans: B, A, C
